Target: Sodium channel protein type 10 subunit alpha (Homo sapiens)
Test: Inhibition of human Nav1.8 expressed in HEK293 cells assessed as reduction in blue fluorescent signal by VSP-FRET assay
Assay type: cell-based
Each entry below lists one item and its recorded pIC50 value.
Quick note: pIC50 values are minus log10 of concentrations in mol/L.

What value of measured pIC50 is listed for "COc1ccc(Cl)c(-c2ccc(NC(=O)C(C)C)nc2N)c1" ?
5.40

---

Molecular target: Sodium channel protein type 10 subunit alpha (Homo sapiens)
Assay: Inhibition of human Nav1.8 expressed in HEK293 cells assessed as reduction in blue fluorescent signal by VSP-FRET assay
Type: cell-based
reported-property: pIC50
Quick note: pIC50 values are minus log10 of concentrations in mol/L.

Entry "Cn1nccc1C(=O)Nc1ccc(-c2cc(Cl)cc(Cl)c2Cl)c(N)n1" , system Sodium channel protein type 10 subunit alpha (Homo sapiens): what pIC50 was measured?
6.12

Continuing:
Entry Nc1nnc(-c2cccc(Cl)c2Cl)c(N)n1 [LAMOTRIGINE] , system Sodium channel protein type 10 subunit alpha (Homo sapiens): what pIC50 was measured?
4.01

Entry "Cn1nccc1C(=O)Nc1ccc(-c2ccccc2Cl)c(N)n1" , system Sodium channel protein type 10 subunit alpha (Homo sapiens): what pIC50 was measured?
5.31

---

Molecular target: Sodium channel protein type 10 subunit alpha (Homo sapiens, UniProt Q9Y5Y9)
Sequence (Q9Y5Y9 whole entry): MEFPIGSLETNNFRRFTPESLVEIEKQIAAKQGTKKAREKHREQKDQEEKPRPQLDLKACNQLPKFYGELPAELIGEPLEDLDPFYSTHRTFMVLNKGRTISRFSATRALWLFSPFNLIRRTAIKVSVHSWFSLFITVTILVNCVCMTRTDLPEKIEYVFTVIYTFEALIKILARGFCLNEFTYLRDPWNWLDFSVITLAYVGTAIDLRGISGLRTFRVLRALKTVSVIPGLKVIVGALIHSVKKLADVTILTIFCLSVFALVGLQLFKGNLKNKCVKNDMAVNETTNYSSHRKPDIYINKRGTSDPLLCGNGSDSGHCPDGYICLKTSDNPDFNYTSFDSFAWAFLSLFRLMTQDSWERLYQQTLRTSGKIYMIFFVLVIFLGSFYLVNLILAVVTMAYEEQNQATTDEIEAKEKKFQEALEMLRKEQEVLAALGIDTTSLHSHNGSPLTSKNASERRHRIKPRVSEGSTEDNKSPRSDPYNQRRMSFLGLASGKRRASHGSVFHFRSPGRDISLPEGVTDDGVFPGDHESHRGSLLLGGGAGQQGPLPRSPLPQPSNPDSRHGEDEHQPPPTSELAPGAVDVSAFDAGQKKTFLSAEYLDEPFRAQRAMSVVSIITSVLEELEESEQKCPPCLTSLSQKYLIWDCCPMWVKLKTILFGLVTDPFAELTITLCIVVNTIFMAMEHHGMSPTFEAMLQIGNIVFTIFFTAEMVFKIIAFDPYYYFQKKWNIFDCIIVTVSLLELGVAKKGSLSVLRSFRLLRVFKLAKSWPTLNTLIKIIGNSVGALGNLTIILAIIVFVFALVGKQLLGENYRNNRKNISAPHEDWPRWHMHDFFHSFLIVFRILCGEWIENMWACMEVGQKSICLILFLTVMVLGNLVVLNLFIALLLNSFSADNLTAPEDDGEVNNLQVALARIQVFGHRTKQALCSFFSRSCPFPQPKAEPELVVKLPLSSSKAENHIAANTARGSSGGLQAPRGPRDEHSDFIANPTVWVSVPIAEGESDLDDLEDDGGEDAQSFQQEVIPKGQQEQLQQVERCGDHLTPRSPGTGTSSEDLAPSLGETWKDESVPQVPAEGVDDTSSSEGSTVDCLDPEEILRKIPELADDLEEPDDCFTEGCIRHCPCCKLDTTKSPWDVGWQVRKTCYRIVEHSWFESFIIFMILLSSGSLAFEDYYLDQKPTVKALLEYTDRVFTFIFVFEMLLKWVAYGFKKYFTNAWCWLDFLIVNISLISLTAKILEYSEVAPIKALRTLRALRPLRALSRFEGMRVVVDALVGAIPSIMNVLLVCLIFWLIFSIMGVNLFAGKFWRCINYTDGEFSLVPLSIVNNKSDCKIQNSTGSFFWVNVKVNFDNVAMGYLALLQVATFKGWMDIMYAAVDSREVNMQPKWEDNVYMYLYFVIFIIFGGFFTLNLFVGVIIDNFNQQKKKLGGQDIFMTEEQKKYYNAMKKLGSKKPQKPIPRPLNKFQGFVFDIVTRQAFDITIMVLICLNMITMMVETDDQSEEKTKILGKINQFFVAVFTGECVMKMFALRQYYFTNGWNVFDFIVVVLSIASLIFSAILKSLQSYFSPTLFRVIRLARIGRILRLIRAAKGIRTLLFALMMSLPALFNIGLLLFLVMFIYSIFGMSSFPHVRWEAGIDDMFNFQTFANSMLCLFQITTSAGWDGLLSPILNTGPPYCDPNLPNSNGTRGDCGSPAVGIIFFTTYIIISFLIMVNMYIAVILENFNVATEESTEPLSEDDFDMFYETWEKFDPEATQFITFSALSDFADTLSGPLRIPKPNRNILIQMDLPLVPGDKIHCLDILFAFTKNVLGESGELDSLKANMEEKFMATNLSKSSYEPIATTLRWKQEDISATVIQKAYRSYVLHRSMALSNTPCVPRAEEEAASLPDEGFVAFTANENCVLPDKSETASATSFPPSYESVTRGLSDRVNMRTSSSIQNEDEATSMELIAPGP
Test: Inhibition of human Nav1.8 expressed in HEK293 cells assessed as reduction in blue fluorescent signal by VSP-FRET assay
Format: cell-based
pIC50: −log10 of the molar value.
reported-property: pIC50

// worked examples, pIC50 included
What value of measured pIC50 is listed for "Cn1nccc1C(=O)Nc1ccc(-c2ccc(F)cc2Cl)c(N)n1" ?
< 4.51

What value of measured pIC50 is listed for "CNC(=O)c1ccc(-c2cc(Cl)cc(Cl)c2)c(N)n1" ?
< 4.49

Turning to the following compound.
What value of measured pIC50 is listed for "CNC(=O)c1ccc(-c2cccc(Cl)c2)c(N)n1" ?
< 4.49
